Measured Target: CDK2/Cyclin E1 (Homo sapiens)
Experimental Details: CDK2/Cyclin E1 Biochemical Assay (TR-FRET), 1 mM ATP
Condition Label: 0.15 μM Rb (Ser780)-biotin substrate, pH7.0, 60 min preincubation, 90 min reaction, room temperature
Experimental: CDK2/Cyclin E1 and CDK1/Cyclin B1 Biochemical Assays Compounds disclosed herein were tested for inhibition of CDK2/Cyclin E1 or CDK1/Cyclin B1 kinase in an assay based on the time-resolved fluorescence-resonance energy transfer (TR-FRET) methodology. […] Plates were incubated at room temperature for 60 minutes, and the TR-FRET signals (ex337 nm, em665 nm/620 nm) were recorded on a PHERAstar FSX plate reader (BMG Labtech). […]
Measured Endpoint: IC50 (nM)

(I) CN1c2ccc(Nc3cc([C@@H]4CC[C@H](OC(=O)NC(C)(C)C)C4)[nH]n3)c(F)c2CS1(=O)=O (relative stereo)
(II) CC1(NC(=O)O[C@H]2CC[C@@H](c3cc(Nc4cc5c(cc4F)S(=O)(=O)NC5)n[nH]3)C2)COC1 (relative stereo)
# return whichever of I and II has the smaller IC50 Pick one and reply with its label.
I

(A) CC1(NC(=O)O[C@H]2CC[C@@H](c3cc(Nc4cc5c(cc4F)S(=O)(=O)NC5)n[nH]3)C2)CCOC1 (relative stereo)
(B) CC1(NC(=O)O[C@H]2CC[C@@H](c3cc(Nc4cc5c(cc4F)S(=O)(=O)NC5)n[nH]3)C2)CCCC1 (relative stereo)
(C) CC(C)NC(=O)O[C@H]1CC[C@@H](c2cc(Nc3ccc4c(c3F)N(C)S(=O)(=O)N4C)n[nH]2)C1 (relative stereo)
In this exercise, place the 3 compounds in ascending sequence of their recorded IC50. Write out the labels following the order that was asked for.
B, A, C
(B: 1.7 nM, A: 7.6 nM, C: 12 nM)

###

Measured Target: CDK1/Cyclin B1 (Homo sapiens)
Experimental Details: CDK1/Cyclin B1 Biochemical Assay (TR-FRET), 0.015 mM ATP
Condition Label: 0.15 μM Rb (Ser780)-biotin substrate, pH7.0, 60 min preincubation, 120 min reaction, room temperature
pIC50: −log10 of the molar value.
Measured Endpoint: pIC50

Compound	pIC50
[2H]C([2H])([2H])N1Cc2c(ccc(Nc3cc([C@@H]4CC[C@H](OC(=O)NC5(C)CC5)C4)[nH]n3)c2F)S1(=O)=O (single isomer, unassigned) [Example 132a]	6.69

(A) CC(C)NC(=O)O[C@H]1CC[C@@H](c2cc(Nc3ccc4c(c3F)CS(=O)(=O)N4C)n[nH]2)C1 (single isomer, unassigned) [Example 255a]
(B) CN1c2ccc(Nc3cc([C@@H]4CC[C@H](OC(=O)NC56CC(C5)C6)C4)[nH]n3)cc2CS1(=O)=O (relative stereo) [Example 231]
# return whichever of A and B has the smaller pIC50 Pick one and reply with its label.
A

###

Measured Target: CDK1/Cyclin B1 (Homo sapiens, UniProt P06493)
Sequence (P06493 whole entry): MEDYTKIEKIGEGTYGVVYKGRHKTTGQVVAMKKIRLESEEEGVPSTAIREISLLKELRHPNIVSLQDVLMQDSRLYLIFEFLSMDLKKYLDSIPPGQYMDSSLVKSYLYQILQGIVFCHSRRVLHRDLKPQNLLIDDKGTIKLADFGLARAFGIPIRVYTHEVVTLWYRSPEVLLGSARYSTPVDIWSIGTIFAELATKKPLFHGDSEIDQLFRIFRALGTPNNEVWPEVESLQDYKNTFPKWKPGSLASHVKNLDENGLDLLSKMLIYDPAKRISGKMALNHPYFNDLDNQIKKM
Sequence (P14635 whole entry partner): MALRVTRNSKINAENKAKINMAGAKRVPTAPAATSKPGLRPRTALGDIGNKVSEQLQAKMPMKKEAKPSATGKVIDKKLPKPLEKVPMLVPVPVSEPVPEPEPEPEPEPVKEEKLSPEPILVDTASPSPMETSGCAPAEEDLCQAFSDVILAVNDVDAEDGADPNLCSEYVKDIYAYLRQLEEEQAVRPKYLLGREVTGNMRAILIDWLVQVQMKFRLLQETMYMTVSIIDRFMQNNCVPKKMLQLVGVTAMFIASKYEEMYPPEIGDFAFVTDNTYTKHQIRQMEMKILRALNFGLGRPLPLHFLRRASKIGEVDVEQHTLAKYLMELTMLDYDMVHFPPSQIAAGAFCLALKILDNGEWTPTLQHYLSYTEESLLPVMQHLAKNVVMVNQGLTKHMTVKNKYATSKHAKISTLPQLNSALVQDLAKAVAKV
Experimental Details: CDK1/Cyclin B1 Biochemical Assay (TR-FRET), 0.015 mM ATP
Condition Label: 0.15 μM Rb (Ser780)-biotin substrate, pH7.0, 60 min preincubation, 120 min reaction, room temperature
Measured Endpoint: IC50 (nM)

// known answers, use as guide
Compound	Measured Target	Value Reported
CC(=O)N1CC(N2Cc3c(ccc(Nc4cc([C@@H]5CC[C@H](OC(=O)NC(C)C)C5)[nH]n4)c3F)S2(=O)=O)C1 (relative stereo)	CDK1/Cyclin B1 (Homo sapiens, UniProt P06493)	762
CC[C@H](C)NC(=O)O[C@H]1CC[C@@H](c2cc(Nc3ccc4c(c3F)CS(=O)(=O)N4C3COC3)n[nH]2)C1 (single isomer, unassigned) [Example 261b]	CDK1/Cyclin B1 (Homo sapiens, UniProt P06493)	23
CN1c2ccc(Nc3cc([C@@H]4CC[C@H](OC(=O)NC5CCC5)C4)[nH]n3)cc2CS1(=O)=O (single isomer, unassigned) [Example 227b]	CDK1/Cyclin B1 (Homo sapiens, UniProt P06493)	45
CC(C)NC(=O)O[C@H]1CC[C@@H](c2cc(Nc3ccc4c(c3)S(=O)(=O)NC4C)[nH]n2)C1 (single isomer, unassigned) [Example 5a]	CDK1/Cyclin B1 (Homo sapiens, UniProt P06493)	49
CC(C)NC(=O)O[C@H]1CC[C@@H](c2cc(Nc3ccc4c(c3)CCS(=O)(=O)N4)n[nH]2)C1 (single isomer, unassigned) [Example 246a]	CDK1/Cyclin B1 (Homo sapiens, UniProt P06493)	201
CC(NC(=O)O[C@H]1CC[C@@H](c2cc(Nc3ccc4c(c3F)CNS4(=O)=O)n[nH]2)C1)C1CC1 (relative stereo)	CDK1/Cyclin B1 (Homo sapiens, UniProt P06493)	76

(I) CC(C)NC(=O)O[C@H]1CC[C@@H](c2cc(Nc3ccc4c(c3F)CN(C)S4(=O)=O)n[nH]2)C1 (single isomer, unassigned) [Example 121a]
(II) CC[C@H](C)NC(=O)O[C@H]1CC[C@@H](c2cc(Nc3ccc4c(c3F)S(=O)(=O)NC4)n[nH]2)C1 (relative stereo)
Field: entry with larger IC50 (options I / II ). Pick one and reply with its label.
I
(I: 425 nM, II: 29 nM)

(1) CC(C)NC(=O)O[C@@H]1CC[C@H](c2cc(Nc3ccc4c(c3)S(=O)(=O)CN4C(=O)OC(C)(C)C)n[nH]2)C1 (relative stereo)
(2) COCCN1Cc2c(ccc(Nc3cc([C@@H]4CC[C@H](OC(=O)NC(C)C)C4)[nH]n3)c2F)S1(=O)=O (relative stereo)
Field: entry with larger IC50 (options 1 / 2 ). Pick one and reply with its label.
1

(1) C[C@@H](CO)NC(=O)O[C@H]1CC[C@@H](c2cc(Nc3ccc4c(c3F)CN(C)S4(=O)=O)n[nH]2)C1 (relative stereo)
(2) CC(C)NC(=O)O[C@H]1CC[C@@H](c2cc(Nc3ccc4c(c3F)S(=O)(=O)N(CCO)C4)n[nH]2)C1 (relative stereo)
# return whichever of 1 and 2 has the smaller IC50 Pick one and reply with its label.
2
(2: 116 nM, 1: 658 nM)

###

Measured Target: CDK1/Cyclin B1 (Homo sapiens, UniProt P06493)
Experimental Details: CDK1/Cyclin B1 Biochemical Assay (TR-FRET), 0.015 mM ATP
Condition Label: 0.15 μM Rb (Ser780)-biotin substrate, pH7.0, 60 min preincubation, 120 min reaction, room temperature
Measured Endpoint: IC50 (nM)

Compound	Display Unit	IC50
[2H]C([2H])([2H])N1c2ccc(Nc3cc([C@@H]4CC[C@H](OC(=O)NC(C)C)C4)[nH]n3)c(F)c2CS1(=O)=O (single isomer, unassigned) [Example 267a]	nM	142

(P) CC(C)CN1Cc2c(ccc(Nc3cc([C@@H]4CC[C@H](OC(=O)NC(C)C)C4)[nH]n3)c2F)S1(=O)=O (relative stereo)
(Q) [2H]C([2H])([2H])N1Cc2c(ccc(Nc3cc([C@H]4CC[C@@H](OC(=O)NC5(C)CC5)C4)[nH]n3)c2F)S1(=O)=O (racemic)
Field: entry with larger IC50 (options P / Q ). Pick one and reply with its label.
P

###

Measured Target: CDK2/Cyclin E1 (Homo sapiens, UniProt P24941)
Experimental Details: CDK2/Cyclin E1 Biochemical Assay (TR-FRET), 0.060 mM ATP
Condition Label: 0.15 μM Rb (Ser780)-biotin substrate, pH7.0, 60 min preincubation, 120 min reaction, room temperature
Measured Endpoint: IC50 (nM)

Compound	Value Reported
CC(C)NC(=O)O[C@H]1CC[C@@H](c2cc(Nc3ccc4c(c3F)CN(CC(F)(F)F)S4(=O)=O)n[nH]2)C1 (relative stereo) [Example 66]	7.3
CC[C@H](C)NC(=O)O[C@@H]1CC[C@H](c2cc(Nc3ccc4c(c3F)CS(=O)(=O)N4)n[nH]2)C1 (single isomer, unassigned) [Example 383a]	1.7
CC[C@H](C)NC(=O)O[C@H]1CC[C@@H](c2cc(Nc3ccc4c(c3F)CS(=O)(=O)N4CC(F)(F)F)n[nH]2)C1 (single isomer, unassigned) [Example 265a]	1.6
CCCNC(=O)O[C@H]1CC[C@@H](c2cc(Nc3cc4c(cc3F)S(=O)(=O)NC4)n[nH]2)C1 (single isomer, unassigned) [Example 42b]	5.5

(I) CC(C)NC(=O)O[C@H]1CC[C@@H](c2cc(Nc3cc4c(cc3F)N(C3COC3)S(=O)(=O)C4)n[nH]2)C1 (relative stereo) [Example 301]
(II) CCCNC(=O)O[C@@H]1CC[C@H](c2cc(Nc3ccc4c(c3F)CS(=O)(=O)N4)n[nH]2)C1 (single isomer, unassigned) [Example 387a]
(III) Cc1cc2c(cc1Nc1cc([C@@H]3CC[C@H](OC(=O)NC(C)C)C3)[nH]n1)S(=O)(=O)NC2 (relative stereo) [Example 185]
(IV) CC(=O)N1CC(N2Cc3c(ccc(Nc4cc([C@@H]5CC[C@H](OC(=O)NC(C)C)C5)[nH]n4)c3F)S2(=O)=O)C1 (relative stereo) [Example 90]
(V) CC1(NC(=O)O[C@H]2CC[C@@H](c3cc(Nc4ccc5c(c4)CNS5(=O)=O)n[nH]3)C2)CC1 (relative stereo) [Example 177]
Arrange by IC50, high to low. Write out the labels following the order that was asked for.
III, IV, I, II, V
(III: 239 nM, IV: 20 nM, I: 12 nM, II: 3 nM, V: 1.1 nM)

// data source = patent US20260297080A1
